B1: FOXJ1 (parent)
chain: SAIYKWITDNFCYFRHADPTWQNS

Variants of: B1
Experiment: protein stability index of a GFP-peptide fusion (GPS, HEK-293T) (PSI 1-6); higher = more stable;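 further: lentivirally expressed fusions sorted by FACS into six bins by GFP to DsRed ratio, PSI derived from sequencing read proportions per bin multiplied by bin number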
Settings: c terminus: a fixed tail appended
value.kind: protein stability index
Answer as a number with no unit attached.

Below are worked cases with known answers.
W6I | 3.22
H16R | 5.03

# input Could you tell me which protein stability index is on file for `F11M` ?
# output 3.18

# input Same for `D18I`
# output 2.82
